System: CLDN3/4 (endogenous on LS513 or MCF7 cells)
Experimental Protocol: FACS titration of labelled mAb on LS513 cells (endogenous CLDN3/4+)
pEC50: −log10 of the molar value.
Quantity: pEC50

>>> value_measured("AB2 (antibody, V domains shown, full-length IgG (ExpiCHO)) VH: EVKLEESGGGLVQPGGSMKLSCVASGFTFSDYWMNWVRQSPEKGLEWVAQIRLKSDNYATHYAESVKGRFTISRDDSKRSVYLQMNNLRAEDTGTYYCNDGPPSGCWGQGTTLIVSS VL: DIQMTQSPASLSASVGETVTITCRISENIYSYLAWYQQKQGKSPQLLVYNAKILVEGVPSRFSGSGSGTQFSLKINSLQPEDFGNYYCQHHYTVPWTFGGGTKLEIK")
5.30
>>> value_measured("AB1-6 (antibody, V domains shown, humanized) VH: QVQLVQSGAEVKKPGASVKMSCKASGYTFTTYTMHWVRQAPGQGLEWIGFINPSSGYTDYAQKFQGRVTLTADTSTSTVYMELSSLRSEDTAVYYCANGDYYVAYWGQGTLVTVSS VL: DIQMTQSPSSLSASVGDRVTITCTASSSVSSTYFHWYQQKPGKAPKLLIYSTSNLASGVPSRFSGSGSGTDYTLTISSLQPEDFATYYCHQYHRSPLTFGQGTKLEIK")
5.30
>>> value_measured("AB7 (antibody, V domains shown, full-length IgG (ExpiCHO)) VH: EVQLQQSGPELVKPGASMKISCKASGYSFTGYTMNWVKQSHGKNLEWIGLINPYNGGTNYNQKFKGKATLTVDKSSSTAYMELLSLTSEDSAVYYCARGVYDYDGFTYWGQGTLVTVSA VL: QIVLTQSPAIMSASLGDRVTMTCTASSSVSSSYLHWYQQKPGSSPKLWIYSTSNLASGVPARFSGSGSGTSYSLTISSMEAEDAATYYCHQYHRSPPTFGSGTKLEIK")
6.20

Value source: patent US20230049752A1
